// values below are reported inhibition at 10 µM
Biological target: 5-HT re-uptake (Rattus norvegicus, UniProt P31652)
Construct: synaptosomes are freshly isolated from rat brain areas; from tissue; host or cells: rat brain synaptosomes (P2 fraction), medulla + pons region, male rats
Sequence (P31652 whole entry): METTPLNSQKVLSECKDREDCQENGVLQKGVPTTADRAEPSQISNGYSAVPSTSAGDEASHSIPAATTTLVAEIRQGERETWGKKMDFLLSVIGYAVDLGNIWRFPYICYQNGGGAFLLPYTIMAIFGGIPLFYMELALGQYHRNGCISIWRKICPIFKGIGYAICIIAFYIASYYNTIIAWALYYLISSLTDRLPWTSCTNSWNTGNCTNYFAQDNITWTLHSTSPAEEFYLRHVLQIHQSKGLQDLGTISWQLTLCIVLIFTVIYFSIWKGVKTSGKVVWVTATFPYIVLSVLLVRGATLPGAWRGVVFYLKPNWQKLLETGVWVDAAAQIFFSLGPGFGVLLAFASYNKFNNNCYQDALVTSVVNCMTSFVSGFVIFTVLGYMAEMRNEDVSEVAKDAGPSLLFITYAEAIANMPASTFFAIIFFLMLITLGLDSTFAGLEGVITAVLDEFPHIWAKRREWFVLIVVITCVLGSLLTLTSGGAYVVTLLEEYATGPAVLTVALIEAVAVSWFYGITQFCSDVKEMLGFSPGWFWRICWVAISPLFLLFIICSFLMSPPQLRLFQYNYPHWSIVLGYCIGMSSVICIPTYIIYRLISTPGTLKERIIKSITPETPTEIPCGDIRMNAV
Assay: Inhibition of 5-HT re-uptake in rat brain synaptosomes (P2 fraction, medulla + pons)
Type: biochemical
Details: 10 μmol/l
Counter-ions that a name gives are not always drawn.
propertyMeasured: inhibition at 10 µM (%)

compound | propertyMeasured | measured
CN(C)C[C@@H]1CCCCC[C@@H]1c1cccnc1 (relative stereo) [Example 26, hydrochloride] | inhibition at 10 µM | 82
CN(C)C[C@@H]1CCCC[C@H]1c1cccnc1.Cl (relative stereo) [Example 7, hydrochloride] | inhibition at 10 µM | 95
CN(C)CC1CCCCC=C1c1ccc(Cl)nc1 (stereo not drawn) [Example 48, hydrochloride] | inhibition at 10 µM | 81
COc1cncc(C2=C(CN(C)C)CCCCCC2)c1 [Example 74, hydrochloride] | inhibition at 10 µM | 72
COc1cncc(C2=CCCCCCC2CN(C)C)c1 (stereo not drawn) [Example 73, hydrochloride] | inhibition at 10 µM | 89
CCCN(CCC)CC1=C(c2cccnc2)CCCC1.Cl [Example 65, hydrochloride] | inhibition at 10 µM | 54
CN(C)CC1CCCC1c1cccnc1.Cl (stereo not drawn) [Example 31, hydrochloride] | inhibition at 10 µM | 70
CN(C)CC1CCCCC1(Cl)c1ccc(Cl)nc1 (stereo not drawn) [Example 15, hydrochloride] | inhibition at 10 µM | 51
CN(C)CC1=C(c2cncc(O)c2)CCCC1 [Example 64, hydrochloride] | inhibition at 10 µM | 68
CN(C)CC1CCCCC=C1c1cccnc1.Cl (stereo not drawn) [Example 24, hydrochloride] | inhibition at 10 µM | 67
CNCC1=C(c2cccnc2)CCCC1.Cl [Example 2, hydrochloride] | inhibition at 10 µM | 69
CN(C)CC1CCCCC1(Cl)c1cccnc1 (stereo not drawn) [Example 14, hydrochloride] | inhibition at 10 µM | 73
CN(C)CC1CCCCCC1(Cl)c1ccc(Cl)nc1 (stereo not drawn) [Example 13, hydrochloride] | inhibition at 10 µM | 38
COc1cncc(C2=CCCCC2CN(C)C)c1 (stereo not drawn) [Example 55, hydrochloride] | inhibition at 10 µM | 67
COc1cncc(C2CCCCC2CN(C)C)c1 (stereo not drawn) [Example 62, hydrochloride] | inhibition at 10 µM | 77
CN(C)C[C@@H]1CCCC[C@@H]1c1cccnc1 (relative stereo) [Example 6, hydrochloride] | inhibition at 10 µM | 94
COc1cncc(C2CCCCCC2CN(C)C)c1 (stereo not drawn) [Example 60, hydrochloride] | inhibition at 10 µM | 75
CN(C)CC1=C(c2cccnc2)CCCC1.Cl.Cl [Example 1, dihydrochloride] | inhibition at 10 µM | 83
